Study System: IGF-1R (Homo sapiens)
Construct: expressed in transfected cells
Sequence (P08069 31-1367): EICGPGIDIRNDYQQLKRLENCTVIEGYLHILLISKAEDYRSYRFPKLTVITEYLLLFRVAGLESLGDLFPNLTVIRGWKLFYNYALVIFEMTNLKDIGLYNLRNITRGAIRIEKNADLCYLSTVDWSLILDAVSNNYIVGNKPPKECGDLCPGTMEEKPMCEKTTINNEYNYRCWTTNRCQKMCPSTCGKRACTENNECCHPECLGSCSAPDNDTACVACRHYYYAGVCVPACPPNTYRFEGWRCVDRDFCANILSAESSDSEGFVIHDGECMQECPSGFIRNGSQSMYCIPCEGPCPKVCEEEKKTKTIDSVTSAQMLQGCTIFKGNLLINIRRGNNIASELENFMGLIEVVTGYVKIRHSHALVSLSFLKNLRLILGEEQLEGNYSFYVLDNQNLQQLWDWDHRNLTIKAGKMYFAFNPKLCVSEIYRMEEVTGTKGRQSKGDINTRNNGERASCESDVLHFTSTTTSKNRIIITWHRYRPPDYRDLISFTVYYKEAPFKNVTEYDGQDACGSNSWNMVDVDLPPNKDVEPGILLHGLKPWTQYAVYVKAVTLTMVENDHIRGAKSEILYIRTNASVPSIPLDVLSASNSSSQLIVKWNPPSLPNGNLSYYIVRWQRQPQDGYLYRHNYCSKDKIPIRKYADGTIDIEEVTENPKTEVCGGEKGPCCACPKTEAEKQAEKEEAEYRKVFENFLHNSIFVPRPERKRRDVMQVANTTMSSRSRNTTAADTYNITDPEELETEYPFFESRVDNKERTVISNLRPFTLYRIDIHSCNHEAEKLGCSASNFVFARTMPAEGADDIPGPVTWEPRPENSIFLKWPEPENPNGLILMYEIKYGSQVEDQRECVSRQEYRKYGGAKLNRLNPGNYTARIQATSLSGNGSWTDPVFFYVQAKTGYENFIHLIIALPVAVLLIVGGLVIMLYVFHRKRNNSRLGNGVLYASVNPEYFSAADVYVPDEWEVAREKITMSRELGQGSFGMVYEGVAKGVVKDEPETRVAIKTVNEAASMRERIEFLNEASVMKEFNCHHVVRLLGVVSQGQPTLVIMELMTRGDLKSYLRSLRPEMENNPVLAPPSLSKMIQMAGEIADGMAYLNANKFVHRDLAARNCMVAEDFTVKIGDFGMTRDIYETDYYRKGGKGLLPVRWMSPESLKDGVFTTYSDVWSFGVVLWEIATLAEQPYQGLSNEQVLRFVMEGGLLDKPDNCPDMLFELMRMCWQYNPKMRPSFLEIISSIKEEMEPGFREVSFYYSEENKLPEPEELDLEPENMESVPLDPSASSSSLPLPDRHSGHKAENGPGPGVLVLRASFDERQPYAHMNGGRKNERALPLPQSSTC
Assay Name: Example B-1: IGF-1R Assay (PC3 cells stimulated with IGF1, AlphaLISA on cell lysates)
Type: cell-based
Experimental Conditions: compound two hours, IGF1 200 ng/mL for 30 min, read-out: IC50, Biological Activity against IGF-1R (Table B1)
pIC50: −log10 of the molar value.
Outcome Measure: pIC50

INSERT INTO measurements (molecule, measured) VALUES
  ('CC(C)Nc1cc(CN2C(=O)N(c3ccc4c(c3)S(=O)(=O)CC4(C)C)C(=O)C2(C)C)ccn1 [Compound 190]', '5.00 to 5.70'),
  ('Cc1c(CN2C(=O)N(c3ccc(C4(C(F)(F)F)CC4)cc3)C(=O)C2(C)C)ccnc1NC(C)C [Compound 122]', '< 5.00'),
  ('CC1(C)C(=O)N(c2ccc(SC(F)(F)F)cc2)C(=O)N1Cc1ccnc(NC2CCC2)c1 [Compound 378]', '≥ 6.30'),
  ('CC1(C)C(=O)N(c2ccc(SC(F)(F)F)cc2)C(=O)N1Cc1ccnc(NC(=O)Nc2ccccc2F)c1 [Compound 375]', '≥ 6.30'),
  ('CC1(C)C(=O)N(c2ccc(C3(C#N)CC3)cc2)C(=O)N1Cc1ccnc(N)c1 [Compound 82]', '≥ 6.30'),
  ('C[C@@H](CC#N)Nc1cc(CN2C(=O)N(c3ccc(C4(C(F)(F)F)CC4)cc3)C(=O)C2(C)C)ccn1 [Compound 139]', '≥ 6.30'),
  ('CC1(C)C(=O)N(c2ccc(SC(F)(F)F)cc2)C(=O)N1Cc1ccnc(NC(=O)Nc2ccc(Cl)cc2)c1 [Compound 377]', '5.70 to 6.30'),
  ('CC(C)(C)c1ccc(N2C(=O)N(Cc3ccnc(NC45CC(C4)C5)c3)C(C)(C)C2=O)cc1 [Compound 276]', '≥ 6.30'),
  ('CC1(C)C(=O)N(c2ccc(C3(C(F)(F)F)CC3)cc2)C(=O)N1Cc1ccnc(NCCS(C)(=O)=O)c1 [Compound 137]', '≥ 6.30'),
  ('CC(C)Nc1cc(CN2C(=O)N(c3ccc4c(c3)C(=O)N(C)C4(C)C)C(=O)C2(C)C)ccn1 [Compound 186]', '5.00 to 5.70'),
  ('CC(C)(C)c1ccc(N2C(=O)N(Cc3ccnc(NC4(CO)CC4)c3)C(C)(C)C2=O)cc1 [Compound 271]', '5.70 to 6.30'),
  ('CC1(C)C(=O)N(c2ccc(SC(F)(F)F)cc2)C(=O)N1Cc1ccnc2c1CCN2 [Compound 16]', '≥ 6.30'),
  ('Cn1cc(CNc2cc(CN3C(=O)N(c4ccc(SC(F)(F)F)cc4)C(=O)C3(C)C)ccn2)cn1 [Compound 301]', '≥ 6.30'),
  ('CC(C)Nc1cc(CN2C(=O)N(c3ccc(SC(F)(F)F)cc3)C(=O)C2(C)C)cc(F)n1 [Compound 383]', '5.00 to 5.70'),
  ('CC1(C)C(=O)N(c2ccc(SC(F)(F)F)cc2)C(=O)N1Cc1ncnc2[nH]ccc12 [Compound 3]', '≥ 6.30'),
  ('CC1(C)CNc2cc(N3C(=O)N(Cc4ccnc(N)c4)C(C)(C)C3=O)ccc21 [Compound 401]', '≥ 6.30'),
  ('Nc1cc(CN2C(=O)N(c3ccc(SC(F)(F)F)cc3)C(=O)C23CCC3)ccn1 [Compound 292]', '5.70 to 6.30'),
  ('COC[C@@H](C)Nc1cc(CN2C(=O)N(c3ccc(S(=O)(=O)C(F)(F)F)cc3)C(=O)C2(C)C)ccn1 [Compound 318]', '≥ 6.30'),
  ('CN1C(=O)C(C)(C)c2ccc(N3C(=O)N(Cc4ccnc(N)c4)C(C)(C)C3=O)cc21 [Compound 110]', '5.70 to 6.30'),
  ('CC(C)(C)c1ccc(N2C(=O)N(Cc3ccnc(NC4CCCCC4)c3)C(C)(C)C2=O)cc1 [Compound 264]', '≥ 6.30'),
  ('CC1(C)C(=O)N(c2ccc(SC(F)(F)F)cc2)C(=O)N1Cc1cccc(Nc2c(Nc3ccccc3)c(=O)c2=O)n1 [Compound 367]', '5.70 to 6.30'),
  ('CC1(C)C(=O)N(c2ccc(SC(F)(F)F)cc2)C(=O)N1Cc1ccnc2c1CC(=O)N2 [Compound 12]', '≥ 6.30'),
  ('CC(C)(C)Nc1cc(CN2C(=O)N(c3ccc(SC(F)(F)F)cc3)C(=O)C2(C)C)ccn1 [Compound 387]', '5.70 to 6.30'),
  ('CC1(C)COCCC1Nc1cc(CN2C(=O)N(c3ccc(C4(C(F)(F)F)CC4)cc3)C(=O)C2(C)C)ccn1 (stereo not drawn) [Compound 132]', '5.00 to 5.70'),
  ('COc1cc(NC(=O)Nc2cc(CN3C(=O)N(c4ccc(SC(F)(F)F)cc4)C(=O)C3(C)C)ccn2)ccc1O[C@H]1C[C@@H](N(C)C)C1 [Compound 351]', '≥ 6.30'),
  ('CC1(C)C(=O)N(c2ccc(SC(F)(F)F)cc2)C(=O)N1Cc1ccnc(Nc2ncccn2)c1 [Compound 399]', '≥ 6.30'),
  ('CC(C)Nc1cc(CN2C(=O)N(c3ccc(C4CC(F)(F)C4)cc3)C(=O)C2(C)C)ccn1 [Compound 102]', '5.70 to 6.30'),
  ('CC(C)NC(=O)Nc1cc(CN2C(=O)N(c3ccc(SC(F)(F)F)cc3)C(=O)C2(C)C)ccn1 [Compound 370]', '≥ 6.30'),
  ('CC1(C)C(=O)N(c2ccc(SC(F)(F)F)cc2)C(=O)N1Cc1ccnc(NC(=O)NC2CCN(CC(F)(F)F)CC2)c1 [Compound 307]', '≥ 6.30'),
  ('CC1(C)C(=O)N(c2ccc(SC(F)(F)F)cc2)C(=O)N1Cc1ccnc(N)c1F [Compound 380]', '≥ 6.30');
